# Tested Target: Platelet-derived growth factor receptor alpha (Homo sapiens)
# Sequence (P16234 whole entry, the tested form may be a part): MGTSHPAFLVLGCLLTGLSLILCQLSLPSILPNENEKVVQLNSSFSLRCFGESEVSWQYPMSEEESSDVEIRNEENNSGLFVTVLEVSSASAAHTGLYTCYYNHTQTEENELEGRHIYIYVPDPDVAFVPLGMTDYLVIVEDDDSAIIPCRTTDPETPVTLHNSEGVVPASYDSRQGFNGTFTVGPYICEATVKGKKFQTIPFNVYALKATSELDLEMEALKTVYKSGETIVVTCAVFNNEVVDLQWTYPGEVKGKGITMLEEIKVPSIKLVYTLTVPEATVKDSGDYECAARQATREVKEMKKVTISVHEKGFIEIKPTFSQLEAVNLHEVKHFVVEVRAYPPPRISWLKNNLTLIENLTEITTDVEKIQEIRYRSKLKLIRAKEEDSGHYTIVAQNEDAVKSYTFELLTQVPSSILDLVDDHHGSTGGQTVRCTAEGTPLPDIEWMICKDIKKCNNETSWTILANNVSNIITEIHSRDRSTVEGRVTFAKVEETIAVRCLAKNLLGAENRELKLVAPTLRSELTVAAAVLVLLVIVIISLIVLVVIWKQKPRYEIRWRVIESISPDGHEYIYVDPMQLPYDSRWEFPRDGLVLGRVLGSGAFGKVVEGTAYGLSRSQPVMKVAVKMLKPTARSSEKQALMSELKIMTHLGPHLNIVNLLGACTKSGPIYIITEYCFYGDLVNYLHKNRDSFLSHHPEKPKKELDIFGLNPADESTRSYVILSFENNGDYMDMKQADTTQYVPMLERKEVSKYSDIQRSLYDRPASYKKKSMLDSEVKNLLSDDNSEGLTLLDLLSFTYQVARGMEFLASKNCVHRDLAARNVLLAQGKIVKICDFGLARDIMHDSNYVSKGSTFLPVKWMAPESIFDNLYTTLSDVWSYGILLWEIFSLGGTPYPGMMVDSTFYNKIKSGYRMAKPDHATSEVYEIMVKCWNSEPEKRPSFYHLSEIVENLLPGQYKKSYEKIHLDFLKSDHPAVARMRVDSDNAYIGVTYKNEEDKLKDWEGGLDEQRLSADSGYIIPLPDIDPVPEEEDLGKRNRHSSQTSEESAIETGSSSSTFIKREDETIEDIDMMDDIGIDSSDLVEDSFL
# Assay Comment: Inhibition of recombinant human N-terminal GST-His6 tagged PDGFRalpha (Q551 to L1089 residues) expressed in Sf9 insect cells using poly(Ala,Glu,Lys,Tyr)6:2:5:1 hydrobromide as substrate in presence of [gamma-33P]ATP
# IC50 annotations
Metric: IC50

- Smiles Input: "CCCCn1cnc2c(NCc3cccc(Cl)c3)nc(N[C@H]3CC[C@H](N)CC3)nc21"
  Test Value: "> 20 µM"
- Smiles Input: "CC(C)CCn1cnc2c(NCc3cccc(Cl)c3)nc(N[C@H]3CC[C@H](N)CC3)nc21"
  Test Value: "> 20 µM"
- Smiles Input: "CCn1cnc2c(Nc3cccc(Cl)c3)nc(N[C@@H]3CCCC[C@@H]3N)nc21"
  Test Value: "> 20 µM"
